molecular target: T1, Extracellular domain of TIM-3 with Flag and His tag (human); assay: Biacore SPR; antibody captured by anti-human capture antibody on CM5, TIM-3-Flag-His in mobile phase
T1 construct: also called TIM-3-Flag-His
VALUE TYPE: pKd
On this scale, pKd is minus log10 of a concentration expressed in M (mol/L).

For h1701-009 (antibody, human IgG4 S228P, kappa, V domains shown, Humanized IgG4 (S228P)/kappa) VH: QVQLVQSGAEVKKPGASVKVSCKASGYTFTDYYMNWVRQAPGQGLEWMGDIIPNNGGSKYNQKFKDRVTMTTDTSTSTAYMELRSLRSDDTAVYYCATWGYGSSYRWFDYWGQGTLVTVSS VL: DIQMTQSPSSLSASVGDRVTITCLASQPIGIWLAWYQQKPGKAPKLLIYAATSLADGVPSRFSGSGSGTDFTFTISSLQPEDIATYYCQQLYSSPWTFGGGTKVEIKR , write its pKd.
8.87
